B1: COX4I1 (parent)
chain: FDKEWVAKQTKRMLDMKVNPIQGL

variants of: B1; experiment: protein stability index of a GFP-peptide fusion (GPS, HEK-293T) (PSI 1-6); higher = more stable; conditions: c terminus: a fixed tail appended;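 also: lentivirally expressed fusions sorted by FACS into six bins by GFP to DsRed ratio, PSI derived from sequencing read proportions per bin multiplied by bin number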
// FALSE strictly below 2 in protein stability index; TRUE otherwise

Here's what some known entries look like.
INSERT INTO results (variant_descriptor, qualitative_label) VALUES
  ('M13I', 'TRUE'),
  ('A7E', 'FALSE'),
  ('Q22S', 'TRUE'),
  ('K11C', 'TRUE'),
  ('F1M', 'TRUE'),
  ('W5N', 'TRUE'),
  ('W5K', 'TRUE'),
  ('L24D', 'FALSE'),
  ('T10C', 'FALSE'),
  ('F1N', 'TRUE');

Could you now look at the following variant, please?
protein stability index >= 2 for "D15K" ?
FALSE
